All figures here come from ChEMBL document CHEMBL1137368.

tested on: Panel breast (Carcinoma cell lines); test: Anticancer activity against breast cancer cell lines of NCI60 panel; format: functional; details: Homo sapiens
Where a name gives a salt, the structure may show the parent alone.
ENDPOINT_LABEL: GI50 (µM)
Reply with just the number (in µM).

>>> data_value("CC[C@]1(O)C[C@H]2CN(CCc3c([nH]c4ccccc34)[C@@](C(=O)OC)(c3cc4c(cc3OC)N(C=O)[C@H]3[C@@](O)(C(=O)OC)[C@H](OC(C)=O)[C@]5(CC)C=CCN6CC[C@]43[C@@H]65)C2)C1 [VINCRISTINE SULFATE]")
0.316

What the record says about "COc1cc(/C=C2/C(=O)N(C)c3ccccc32)cc(OC)c1OC" : GI50 is 19.5

compound "COc1cc(/C=C2/C(=O)Nc3ccc(O)cc32)cc(OC)c1OC" , GI50 observed: 9.12

Quick note, GI50 for "COc1cc(/C=C2/C(=O)Nc3cccc(Cl)c32)cc(OC)c1OC" landed at 85.1

So for "COc1ccc2c(c1)/C(=C\c1cc(OC)c(OC)c(OC)c1)C(=O)N2" , the logged GI50 turned out to be 0.398

Form field GI50, entry "COc1cc(/C=C2/C(=O)Nc3ccc(F)cc32)cc(OC)c1OC" : 9.55

====

tested on: Panel breast (Carcinoma cell lines); assay: Anticancer activity against breast cancer cell lines of NCI60 panel; format: functional; details: Homo sapiens
Recorded GI50, one value per entry.
Hi! Could you send only the number? It should be in µM, unit omitted.

Record excerpt, results attached:
>>> data_value("COc1cc(/C=C2/C(=O)Nc3ccc(Cl)cc32)cc(OC)c1OC")
15.8
>>> data_value("COc1cc(/C=C2/C(=O)N(c3ccccc3)c3ccccc32)cc(OC)c1OC")
8.32

--- query ---
Measured GI50 for this entry "COc1cc(/C=C2/C(=O)Nc3ccccc32)cc(OC)c1OC" on Panel breast (Carcinoma cell lines): 19.1
